Tested on: Mus musculus
assay-text: Anticonvulsant activity in ip dosed Swiss mouse assessed as protection against maximal electroshock-induced seizures after 30 mins
Format: functional
condition-details: 0.5 h
ED50 strictly under 20 mg/kg means Met; at 20 mg/kg or over means Not met.

Problem: For the compound `CCCCCOc1ccc2c(c1)CCCc1n[nH]c(=O)n1-2` , is ED50 under 20 mg/kg?
Not met

Problem: For the compound `CCCCOc1ccc2c(c1)CCCc1n[nH]c(=O)n1-2` , is ED50 under 20 mg/kg?
Not met

Problem: For the compound `CCCCCCCOc1ccc2c(c1)CCCc1n[nH]c(=O)n1-2` , is ED50 under 20 mg/kg?
Met

Problem: For the compound NC(=O)N1c2ccccc2C=Cc2ccccc21 [CARBAMAZEPINE] , is ED50 under 20 mg/kg?
Met

Problem: For the compound `CCCCCCOc1ccc2c(c1)CCCc1n[nH]c(=O)n1-2` , is ED50 under 20 mg/kg?
Met

Problem: For the compound `CCCCCCCCOc1ccc2c(c1)CCCc1n[nH]c(=O)n1-2` , is ED50 under 20 mg/kg?
Not met
